- Organism: Homo sapiens
- Protocol description: Selectivity ratio of Ki for recombinant human furin to Ki for recombinant human PACE4
Test readout: Ratio Ki

Report Ratio Ki for "Ac-LLLLRVKRY-NH2" please. 2

1 = Ac-LLLLRVKRD-NH2
2 = Ac-LLLLRVKRG-NH2
3 = Ac-LLLLRVKRT-NH2
4 = Ac-LLLLRVKRK-NH2
Reorder: Ratio Ki, max to min. Returns: the labels listed in the requested order. 4, 2, 3, 1

----------
- Subject of test: Proprotein convertase subtilisin/kexin type 6 (Homo sapiens, UniProt P29122)
- Sequence (P29122 whole entry): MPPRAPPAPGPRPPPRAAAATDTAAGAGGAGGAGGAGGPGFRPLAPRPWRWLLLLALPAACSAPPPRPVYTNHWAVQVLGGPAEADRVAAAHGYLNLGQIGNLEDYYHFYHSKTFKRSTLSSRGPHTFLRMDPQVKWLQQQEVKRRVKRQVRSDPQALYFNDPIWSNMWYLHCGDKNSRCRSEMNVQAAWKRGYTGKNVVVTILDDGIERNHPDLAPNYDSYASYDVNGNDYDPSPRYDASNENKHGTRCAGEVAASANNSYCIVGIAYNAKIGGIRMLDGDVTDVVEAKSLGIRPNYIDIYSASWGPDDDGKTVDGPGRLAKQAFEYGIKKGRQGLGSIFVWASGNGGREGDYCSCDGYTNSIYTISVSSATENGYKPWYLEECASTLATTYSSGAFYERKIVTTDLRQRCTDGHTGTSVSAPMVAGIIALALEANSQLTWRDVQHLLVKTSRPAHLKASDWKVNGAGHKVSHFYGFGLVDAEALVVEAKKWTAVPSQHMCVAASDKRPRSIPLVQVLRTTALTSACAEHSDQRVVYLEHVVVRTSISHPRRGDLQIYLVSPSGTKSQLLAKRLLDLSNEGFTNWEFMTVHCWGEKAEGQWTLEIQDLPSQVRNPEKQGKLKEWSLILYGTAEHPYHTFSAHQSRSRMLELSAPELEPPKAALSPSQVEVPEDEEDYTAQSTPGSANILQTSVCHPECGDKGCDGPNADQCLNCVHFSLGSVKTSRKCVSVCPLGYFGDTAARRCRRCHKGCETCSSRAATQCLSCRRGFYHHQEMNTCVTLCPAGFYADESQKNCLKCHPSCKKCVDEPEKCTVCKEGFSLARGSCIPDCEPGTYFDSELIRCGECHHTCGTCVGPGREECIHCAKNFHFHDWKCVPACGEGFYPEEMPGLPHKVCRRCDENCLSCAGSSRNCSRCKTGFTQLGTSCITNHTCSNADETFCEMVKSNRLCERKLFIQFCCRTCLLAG
- Protocol description: Inhibition of recombinant human PACE4 expressed in S2 insect cells using pyroGlu-Arg-Thr-Lys-Arg-AMC peptide as substrate after 1 hr by spectrofluorometry
Test readout: Ki (µM)

Which value of Ki has been reported for "Ac-LLLLRVKRK-NH2" in the records? 0.15

# input substance: "Ac-LLLLRVKRV-NH2" ; wanted: its Ki 0.038

I = Ac-LLLLRVKRS-NH2
II = Ac-LLLLRVKRQ-NH2
Hi there, can you help? I need to know whether I or II has lower measured Ki. Mark your answer with the label of the selected entry. II

A = Ac-LLLLRVKRF-NH2
B = Ac-LLLLRVKRL-NH2
// returns A or B , whichever has the lower Ki Please identify the chosen entry by its label. A

I = Ac-LLLLRVKRP-NH2
II = Ac-LLLLRVKRH-NH2
III = Ac-LLLLRVKRE-NH2
IV = Ac-LLLLRVKRR-NH2
Parameters: sort_field (Ki), sort_dir (desc). The labels, placed in the requested order, form the answer. I, IV, III, II
(I: 0.25 µM, IV: 0.16 µM, III: 0.058 µM, II: 0.033 µM)

a = Ac-LLLLRVKRA-NH2
b = Ac-LLLLRVKRI-NH2
Between the entries labeled a and b , whose measured Ki is lower? Answer with the label corresponding to your selection. a

P = Ac-LLLLRVKRG-NH2
Q = Ac-LLLLRVKRN-NH2
Please choose the item with the lower Ki value from this pair: P and Q Reply with the label of the item you choose. Q
